TESTED_SYSTEM: Tyrosine-protein phosphatase non-receptor type 1 (Homo sapiens, UniProt P18031)
Sequence (P18031 whole entry, the tested form may be a part): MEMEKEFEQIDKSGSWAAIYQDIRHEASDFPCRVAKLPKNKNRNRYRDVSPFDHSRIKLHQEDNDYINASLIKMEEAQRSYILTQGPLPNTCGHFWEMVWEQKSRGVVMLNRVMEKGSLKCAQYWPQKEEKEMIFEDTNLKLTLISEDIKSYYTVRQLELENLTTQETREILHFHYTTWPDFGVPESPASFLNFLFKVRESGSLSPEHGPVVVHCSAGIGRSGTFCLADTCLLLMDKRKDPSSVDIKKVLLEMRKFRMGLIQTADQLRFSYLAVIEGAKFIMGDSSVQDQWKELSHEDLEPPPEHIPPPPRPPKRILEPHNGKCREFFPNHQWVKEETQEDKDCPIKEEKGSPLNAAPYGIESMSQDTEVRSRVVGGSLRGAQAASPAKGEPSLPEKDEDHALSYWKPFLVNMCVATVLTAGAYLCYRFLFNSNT
PROTOCOL_DETAILS: Inhibition of recombinant human PTP1B (1 to 322 residues) expressed in Escherichia coli using P-NPP as substrate after 10 mins by Dixon plot analysis
EXPERIMENTAL_READOUT: Ki (µM)
Answer format: numeric, µM implied, no suffix.

Sample records with Ki:
compound=CC(C)=CCC/C(C)=C/Cc1c(O)c(CC=C(C)C)c(O)c2c(=O)c3cc(O)ccc3oc12 experimental_readout=Ki value_observed=3.1
compound=COc1c(O)cc2oc3cc(O)c(CC=C(C)C)c(O)c3c(=O)c2c1CC=C(C)C experimental_readout=Ki value_observed=3.2

Next, consider the following compound.
Requested field: Ki. Item: COc1c(O)ccc2c(=O)c3c(O)cc4c(c3oc12)C(C)(C)C(CO)O4 (stereo not drawn) 32.7
